Recorded values, source ChEMBL document CHEMBL1177799.

# assay_protocol: Extrapolated AUC in Han Wistar rat at 50 mg/kg, po up to 24 hrs by LC-MS analysis
# Assay type: ADME, organism-based
# Set-up: time < 24 hr, dose 50 mg/kg, route oral
# test_settings: in vivo
parameter_measured: AUC at 24 h (ng·h/mL)
One number for each entry, in ng·h/mL.

Record CCN(C(C)=O)c1ccc(OC)c2nc(NC(=O)c3ccnn3C)sc12 . Reported AUC at 24 h: 74400

----------
# assay_target: Adenosine receptor A2a (Homo sapiens, UniProt P29274)
# Sequence (P29274 whole entry): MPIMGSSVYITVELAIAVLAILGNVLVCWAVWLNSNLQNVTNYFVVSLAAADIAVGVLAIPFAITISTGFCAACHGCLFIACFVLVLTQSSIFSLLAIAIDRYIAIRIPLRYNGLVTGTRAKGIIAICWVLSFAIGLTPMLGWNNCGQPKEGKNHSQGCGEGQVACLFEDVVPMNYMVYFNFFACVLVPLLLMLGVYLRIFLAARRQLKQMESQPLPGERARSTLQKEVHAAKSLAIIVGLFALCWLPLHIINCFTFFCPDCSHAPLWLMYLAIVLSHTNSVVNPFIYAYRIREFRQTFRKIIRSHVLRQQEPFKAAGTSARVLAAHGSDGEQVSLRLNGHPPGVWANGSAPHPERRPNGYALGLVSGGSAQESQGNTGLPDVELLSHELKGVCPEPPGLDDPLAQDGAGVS
The label is Fulfilled for Ki below 50 nM and Not fulfilled for Ki equal to or exceeding 50 nM.

Past entries and their recorded results:
>>> label_value("COc1ccc(N(CCO)C(C)=O)c2sc(NC(=O)c3ccc(F)cc3)nc12")
"Not fulfilled"
>>> label_value("COCCN(C(C)=O)c1ccc(OC)c2nc(NC(=O)c3ccc(F)cc3)sc12")
"Fulfilled"
>>> label_value("CCN(C(C)=O)c1ccc(Cl)c2nc(NC(=O)c3ccc(F)cc3)sc12")
"Fulfilled"

Enquiry: Hello, is Ki of the following compound strictly smaller than 50 nM? CCN(C(C)=O)c1ccc(OC)c2nc(NC(=O)c3ccc(S(C)(=O)=O)cc3)sc12
Return: Not fulfilled

Enquiry: Hello, is Ki of the following compound strictly smaller than 50 nM? CCN(C(C)=O)c1ccc(OC)c2nc(NC(=O)c3ccc(C(=O)N4CCOCC4)cc3)sc12
Return: Not fulfilled

Enquiry: Hello, is Ki of the following compound strictly smaller than 50 nM? COc1ccc(N(CC(=O)O)C(C)=O)c2sc(NC(=O)c3ccc(F)cc3)nc12
Return: Not fulfilled

Enquiry: Hello, is Ki of the following compound strictly smaller than 50 nM? CCN(C(C)=O)c1ccc(OC)c2nc(NC(=O)c3ccc(CN(C)S(C)(=O)=O)cc3)sc12
Return: Not fulfilled

Enquiry: Hello, is Ki of the following compound strictly smaller than 50 nM? COc1ccc(N(CC(N)=O)C(C)=O)c2sc(NC(=O)c3ccc(F)cc3)nc12
Return: Not fulfilled

Enquiry: Hello, is Ki of the following compound strictly smaller than 50 nM? COc1ccc(N(CC(C)C)C(C)=O)c2sc(NC(=O)c3ccc(F)cc3)nc12
Return: Fulfilled

Enquiry: Hello, is Ki of the following compound strictly smaller than 50 nM? CCN(C(C)=O)c1ccc(OC)c2nc(NC(=O)c3cnn(Cc4cccc(F)c4)c3)sc12
Return: Fulfilled

Enquiry: Hello, is Ki of the following compound strictly smaller than 50 nM? CCN(C(C)=O)c1ccc(OC)c2nc(NC(=O)c3ccc(C(=O)NC)cc3)sc12
Return: Not fulfilled

Enquiry: Hello, is Ki of the following compound strictly smaller than 50 nM? CCN(C(C)=O)c1ccc(OC)c2nc(NC(=O)c3ccc(CN4CCCC4=O)cc3)sc12
Return: Fulfilled

Enquiry: Hello, is Ki of the following compound strictly smaller than 50 nM? CCN(C(C)=O)c1ccc(OC)c2nc(NC(=O)c3ccc(C(=O)N4CCCC4)cc3)sc12
Return: Not fulfilled

Enquiry: Hello, is Ki of the following compound strictly smaller than 50 nM? CCN(C(C)=O)c1ccc(OC)c2nc(NC(=O)c3cc[nH]c3)sc12
Return: Fulfilled

Enquiry: Hello, is Ki of the following compound strictly smaller than 50 nM? CCN(C(C)=O)c1ccc(OC)c2nc(NC(=O)c3ccc(C(=O)N4CCCCC4)cc3)sc12
Return: Not fulfilled

Enquiry: Hello, is Ki of the following compound strictly smaller than 50 nM? CCN(C(C)=O)c1ccc(OC)c2nc(NC(=O)c3ccc(-n4cccn4)cc3)sc12
Return: Not fulfilled

Enquiry: Hello, is Ki of the following compound strictly smaller than 50 nM? CCN(C(C)=O)c1ccc(OC)c2nc(NC(=O)c3cnn(Cc4cccc(C(F)(F)F)c4)c3)sc12
Return: Fulfilled

Enquiry: Hello, is Ki of the following compound strictly smaller than 50 nM? COc1ccc(N(C)C(C)=O)c2sc(NC(=O)c3ccc(F)cc3)nc12
Return: Fulfilled

----------
# assay_target: Adenosine receptor A2b (Homo sapiens)
parameter_measured: Ki (nM)
Give bare numbers, in nM.

>>> measurement("CCN(C(C)=O)c1ccc(OC)c2nc(NC(=O)c3ccc(CN4CCCC4=O)cc3)sc12")
14
>>> measurement("CCN(C(C)=O)c1ccc(OC)c2nc(NC(=O)c3ccc(C(=O)N4CCCCC4)cc3)sc12")
4
>>> measurement("CCN(C(C)=O)c1ccc(OC)c2nc(NC(=O)c3ccc(-n4cnnn4)cc3)sc12")
23

Hi! Can you tell me Ki for each of these compounds?
1. CCN(C(C)=O)c1ccc(OC)c2nc(NC(=O)c3cnn(Cc4cccc(C(F)(F)F)c4)c3)sc12
2. CCN(C(C)=O)c1ccc(OC)c2nc(NC(=O)c3ccc(C(=O)N(C)CCOC)cc3)sc12
3. COc1ccc(NC(C)=O)c2sc(NC(=O)c3ccc(F)cc3)nc12
4. CCN(C(C)=O)c1ccc(OC)c2nc(NC(=O)c3ccc(F)cc3)sc12
5. CCN(C(C)=O)c1ccc(OC)c2nc(NC(=O)c3cnn(Cc4cccc(F)c4)c3)sc12

Return:
[4, 13, 130, 13, 6]

Record CCN(C(C)=O)c1ccc(OC)c2nc(NC(=O)c3ccnn3C)sc12 . Reported Ki: 8

----------
Adenosine receptor A1 (Homo sapiens, UniProt P30542): recorded Ki for assorted compounds
Sequence (P30542 whole entry): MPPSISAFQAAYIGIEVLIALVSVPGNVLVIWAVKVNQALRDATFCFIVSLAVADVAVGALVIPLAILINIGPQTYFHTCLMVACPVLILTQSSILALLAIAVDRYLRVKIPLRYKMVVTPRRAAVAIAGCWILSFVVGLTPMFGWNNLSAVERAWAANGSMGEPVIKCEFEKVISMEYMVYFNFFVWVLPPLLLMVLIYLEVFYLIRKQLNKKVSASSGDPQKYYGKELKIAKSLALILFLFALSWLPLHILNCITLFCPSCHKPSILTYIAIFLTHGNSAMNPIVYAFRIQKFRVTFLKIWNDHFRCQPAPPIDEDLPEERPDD
Numbers only, in nM.

Hi! Can you tell me Ki for each of these compounds?
1. CCN(C(C)=O)c1ccc(OC)c2nc(NC(=O)c3ccc(C(=O)OC)cc3)sc12
2. CCN(C(C)=O)c1ccc(OC)c2nc(NC(=O)c3ccc(F)cc3)sc12

Return:
[185, 66]

Hi! Can you tell me Ki for each of these compounds?
1. COc1ccc(NC(C)=O)c2sc(NC(=O)c3ccc(F)cc3)nc12
2. CNC(=O)CN(C(C)=O)c1ccc(OC)c2nc(NC(=O)c3ccc(F)cc3)sc12
3. CCN(C(C)=O)c1ccc(OC)c2nc(NC(=O)c3ccc(CN4CCCC4=O)cc3)sc12

Return:
1. 1600
2. 790
3. 400

----------
# assay_protocol: Extrapolated AUC in Han Wistar rat at 2.5 mg/kg, iv up to 24 hrs by LC-MS analysis
# Format: ADME, organism-based
# Design: time < 24 hr, dose 2.5 mg/kg, route intravenous
# test_settings: in vivo
parameter_measured: AUC at 24 h (ng·h/mL)
One number for each entry, in ng·h/mL.

Record CCN(C(C)=O)c1ccc(OC)c2nc(NC(=O)c3ccnn3C)sc12 . Reported AUC at 24 h: 929

----------
# assay_protocol: Clearance in Han Wistar rat at 2.5 mg/kg, iv up to 24 hrs by LC-MS analysis
# Assay type: ADME, organism-based
# Design: dose 2.5 mg/kg, route intravenous
# test_settings: in vivo
parameter_measured: clearance (mL/min/kg)
Give bare numbers, in mL/min/kg.

Record CCN(C(C)=O)c1ccc(OC)c2nc(NC(=O)c3ccnn3C)sc12 . Reported clearance: 46

----------
# assay_target: Adenosine receptor A2b (Homo sapiens, UniProt P29275)
# Sequence (P29275 whole entry): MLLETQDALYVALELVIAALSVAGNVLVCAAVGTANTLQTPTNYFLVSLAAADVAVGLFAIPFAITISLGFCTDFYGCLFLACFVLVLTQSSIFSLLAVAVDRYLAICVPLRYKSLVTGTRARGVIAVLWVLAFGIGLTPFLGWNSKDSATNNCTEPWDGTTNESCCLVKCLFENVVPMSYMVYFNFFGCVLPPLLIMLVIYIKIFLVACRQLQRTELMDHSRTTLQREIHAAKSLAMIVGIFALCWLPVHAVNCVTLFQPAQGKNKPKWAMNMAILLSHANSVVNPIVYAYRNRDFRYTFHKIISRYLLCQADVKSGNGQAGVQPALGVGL
# assay_protocol: Antagonist activity at human adenosine A2B receptor expressed in CHO cells assessed as inhibition of adenosine-induced cAMP production
Kindly state pIC50 for each of the entries shown.
Give bare numbers, as −log10 of the molar value.

>>> measurement("COC(=O)CN(C(C)=O)c1ccc(OC)c2nc(NC(=O)c3ccc(F)cc3)sc12")
8.10
>>> measurement("CNC(=O)CN(C(C)=O)c1ccc(OC)c2nc(NC(=O)c3ccc(F)cc3)sc12")
6.46
>>> measurement("CCN(C(C)=O)c1ccc(OC)c2nc(NC(=O)c3ccc(-n4ccnc4)cc3)sc12")
7.72
>>> measurement("CCN(C(C)=O)c1ccc(OC)c2nc(NC(=O)c3ccc(C(=O)NC)cc3)sc12")
7.68
>>> measurement("COc1ccc(N(C)C(C)=O)c2sc(NC(=O)c3ccc(F)cc3)nc12")
7.82
>>> measurement("COc1ccc(N(C(C)=O)C(C)C)c2sc(NC(=O)c3ccc(F)cc3)nc12")
7.72

Hi! Can you tell me pIC50 for each of these molecules?
1. CCN(C(C)=O)c1ccc(OC)c2nc(NC(=O)c3ccc(NS(C)(=O)=O)cc3)sc12
2. CCN(C(C)=O)c1ccc(OC)c2nc(NC(=O)c3ccc(C(=O)N4CCN(C)CC4)cc3)sc12
3. COc1ccc(N(CC(=O)N(C)C)C(C)=O)c2sc(NC(=O)c3ccc(F)cc3)nc12
4. CCN(C(C)=O)c1ccc(OC)c2nc(NC(=O)c3ccc(C#N)cc3)sc12
5. CCN(C(C)=O)c1ccc(Cl)c2nc(NC(=O)c3ccc(F)cc3)sc12

Return:
1. 7.43
2. 7.42
3. 6.22
4. 7.55
5. 7.64
